Origin of values: patent US20250169501A1

System: P. aeruginosa biofilm
Assay type: cell-based, Pseudomonas aeruginosa
run parameters: SWF; in 48 h
Inhibition of P. aeruginosa biofilm (MBIC) listing for selected compounds.
Just the number in mM, nothing appended.

Past entries and their recorded results:
compound | assay system | observed
O=[Te]([O-])[O-].[K+].[K+] [Te, potassium tellurite] | P. aeruginosa biofilm | 0.5
[Au+3].[Cl-].[Cl-].[Cl-].[Cl-] [Au, tetrachloroaurate] | P. aeruginosa biofilm | 0.25
O=[N+]([O-])[O-].[Ag+] [Ag, silver nitrate] | P. aeruginosa biofilm | 0.25

Now for the compound whose Inhibition of P. aeruginosa biofilm (MBIC) we want.
Query string: Enter reported Inhibition of P. aeruginosa biofilm (MBIC) observed with P. aeruginosa biofilm for O=[N+]([O-])[O-].O=[N+]([O-])[O-].O=[N+]([O-])[O-].[Ga+3] [Ga, gallium nitrate]
Result string: 25
